From: the supplement of paper PMC10567573

B1: FAM46C (parent)
chain: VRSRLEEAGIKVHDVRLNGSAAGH

# Variants of: B1
# Experimental Details: protein stability index of a GFP-peptide fusion (GPS, HEK-293T) (PSI 1-6); higher = more stable;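 also: lentivirally expressed fusions sorted by FACS into six bins by GFP to DsRed ratio, PSI derived from sequencing read proportions per bin multiplied by bin number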
# Run Conditions: c terminus: a fixed tail appended
protein stability index vs 3: at or above is 1, below is 0.

{"columns": ["Mutation Descriptor", "Class Name"],
 "data": [
  ["L17I", 0]
]}

In: Check if protein stability index >= 3 (inclusive). Item: H13S
Out: 0

In: Check if protein stability index >= 3 (inclusive). Item: K11T
Out: 1

In: Check if protein stability index >= 3 (inclusive). Item: S3P
Out: 1

In: Check if protein stability index >= 3 (inclusive). Item: A8D
Out: 1

In: Check if protein stability index >= 3 (inclusive). Item: V1N
Out: 1

In: Check if protein stability index >= 3 (inclusive). Item: E7P
Out: 1

In: Check if protein stability index >= 3 (inclusive). Item: V12K
Out: 1

In: Check if protein stability index >= 3 (inclusive). Item: K11S
Out: 1

In: Check if protein stability index >= 3 (inclusive). Item: G19I
Out: 1

In: Check if protein stability index >= 3 (inclusive). Item: S3T
Out: 0

In: Check if protein stability index >= 3 (inclusive). Item: A8E
Out: 1

In: Check if protein stability index >= 3 (inclusive). Item: N18C
Out: 0

In: Check if protein stability index >= 3 (inclusive). Item: E7R
Out: 1

In: Check if protein stability index >= 3 (inclusive). Item: V12H
Out: 1

In: Check if protein stability index >= 3 (inclusive). Item: K11H
Out: 0

In: Check if protein stability index >= 3 (inclusive). Item: V15F
Out: 1

In: Check if protein stability index >= 3 (inclusive). Item: V15K
Out: 1

In: Check if protein stability index >= 3 (inclusive). Item: A21E
Out: 0

In: Check if protein stability index >= 3 (inclusive). Item: R4Y
Out: 0

In: Check if protein stability index >= 3 (inclusive). Item: S3V
Out: 0

In: Check if protein stability index >= 3 (inclusive). Item: S20T
Out: 0

In: Check if protein stability index >= 3 (inclusive). Item: R2I
Out: 0

In: Check if protein stability index >= 3 (inclusive). Item: R2S
Out: 1
